# Test system: HT-1080
# TEST_DESCRIPTION: Modulatory profiling: Alamar Blue viability, lethal compound cotreated with death modulator (EC50, AUC)
# Type: cell-based
# TEST_SETTINGS: Homo sapiens, HT-1080, 48 h, HT-1080; cotreated with antioxidant Atoc; 48 h
RECORDED_METRIC: pEC50
Numbers only, as −log10 of the molar value.

Look over these answered cases.
O=C(CCl)N(c1ccccc1)c1c[nH]c2ccccc12 5.21
O=S(=O)(c1ccc2c(c1)C(=NO)c1cc(S(=O)(=O)N3CCCCC3)ccc1-2)N1CCCCC1 5.60
N/C(Cc1ccc(Cl)cc1)=N\OC(=O)c1cccc2ccccc12 4.49

// each listed compound needs a value for pEC50
1. N/C(=N\OC(=O)C12CC3CC(CC(C3)C1)C2)c1ccccc1
2. COC(=O)[C@@H]1Cc2c([nH]c3ccccc23)C(C)(C)N1C(=O)CCl
3. O=C(CCl)N(c1ccc(Cl)cc1)c1c[nH]c2ccccc12

**A:**
4.30
4.93
5.53
